Taken from patent US9464064B2.

I'd appreciate it if you could supply Inh. (%) (Inhibition) values for the items below.
Target: HCV NS3 helicase NS3h_1b(con1) (Hepatitis C virus genotype 1b, UniProt Q9WMX2)
Construct: truncated C-terminally His-tagged NS3 proteins lacking the N-terminal protease, called NS3h; His-tag (C); made in house
Sequence (Q9WMX2 1192-1657): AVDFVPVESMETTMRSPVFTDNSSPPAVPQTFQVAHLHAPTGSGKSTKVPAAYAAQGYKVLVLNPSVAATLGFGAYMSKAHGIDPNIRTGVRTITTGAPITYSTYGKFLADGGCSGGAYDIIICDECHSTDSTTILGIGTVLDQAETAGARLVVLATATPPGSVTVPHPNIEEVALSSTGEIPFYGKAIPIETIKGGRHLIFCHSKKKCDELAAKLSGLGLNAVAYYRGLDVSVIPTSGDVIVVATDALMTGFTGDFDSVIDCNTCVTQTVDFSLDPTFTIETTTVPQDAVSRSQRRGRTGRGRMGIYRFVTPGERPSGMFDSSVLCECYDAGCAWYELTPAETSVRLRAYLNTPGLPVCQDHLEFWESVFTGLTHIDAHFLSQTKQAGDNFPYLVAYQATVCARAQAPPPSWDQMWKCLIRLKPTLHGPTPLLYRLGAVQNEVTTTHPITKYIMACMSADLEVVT
Assay: MBHA screen of NCI mechanistic set library at 20 μM (percent inhibition, compound interference)
Format: biochemical
Details: compounds at 20 μM, MBHA with DNA substrate; calculated from Equation 1
Numbers only, in %.

As a guide, the following entries are already answered.
Task item: Report Inh. (%) (Inhibition) on HCV NS3 helicase NS3h_1b(con1) (Hepatitis C virus genotype 1b, UniProt Q9WMX2) for this entry: CC1=CC23C(COC(=O)C24CO4)C(C(=O)O)=CC3C1C.NCc1ccccc1 (stereo not drawn) [Compound 136037]
Reply: 3.9

Task item: Fill: Inh. (%) (Inhibition) (HCV NS3 helicase NS3h_1b(con1) (Hepatitis C virus genotype 1b, UniProt Q9WMX2)) for this molecule NC(=O)C#CC(N)=O [Compound 65381]
Reply: 14.1

Task item: State recorded Inh. (%) (Inhibition) with HCV NS3 helicase NS3h_1b(con1) (Hepatitis C virus genotype 1b, UniProt Q9WMX2), entry CC[C@@]1(O)C[C@H](O)c2c(O)c3c(c(O)c2[C@H]1C(=O)OC)C(=O)c1cccc(O)c1C3=O [Compound 196524] , no comment.
Reply: 3.3

Could you report Inh. (%) (Inhibition) for every entry in the following list?
1. CCOC(=O)NC1=C(N2CC2)C(=O)C(NC(=O)OCC)=C(N2CC2)C1=O [Compound 182986]
2. NC1=C(Br)C(=O)c2ncccc2C1=O [Compound 105808]
3. Oc1ccc2ccccc2c1N=Nc1cccc2ccccc12 [Compound 45575]
4. CC(C)C[C@H]1C(=O)N2CCC[C@H]2[C@]2(O)O[C@](NC(=O)[C@@H]3C=C4c5cccc6[nH]c(Br)c(c56)C[C@H]4N(C)C3)(C(C)C)C(=O)N12.CS(=O)(=O)O [Compound 169774]
5. Oc1cccc2cccnc12 [Compound 285166]
6. O=C1NC(=O)[C@H]2[C@H]3C=C[C@@H]([C@@H]12)[C@@H]1[C@H]2C(=O)NC(=O)[C@H]2[C@H]31 [Compound 284356]

Reply:
1. −16.6
2. 2.6
3. 18.4
4. −15.6
5. −2.2
6. 0.0

Each molecule below has a recorded value; state its Inh. (%) (Inhibition).
1. Nc1ccc2c(c1)S(=O)(=O)c1cc(N)ccc1-2 [Compound 13966]
2. O=c1c(O)c(-c2ccc(O)c(O)c2)oc2cc(O)ccc12 [Compound 407010]
3. C[C@@H]1C[C@H]2OC(=O)[C@@]3(C)CCC[C@@](C)([C@@H]23)[C@@]1(O)CCc1ccoc1 [Compound 36693]
4. Cc1nnc(-n2c(O)cc(=O)n(-c3ccccc3)c2=S)nc1/C=C/c1ccc(N(C)C)cc1 [Compound 698031]
5. O=C1Cc2c([nH]c3ccc(Br)cc23)-c2ccccc2N1 [Compound 664704]
6. O=[N+]([O-])c1ccc(-c2cn(-c3ccc(Cl)cc3)cn2)cc1 [Compound 610744]
7. CNC(=O)c1cc(NC(=O)N(CCC#N)CCN(C(=O)N[C@@H](Cc2ccccc2)C(=O)N[C@@H](CC(C)C)C(=O)NC)c2ccccc2)ccc1OC [Compound 688363]
8. O=C1c2ccccc2C(=O)c2c(O)c(O)cc(O)c21 [Compound 10447]

Reply:
−14.1
19.4
−8.8
−16.0
−10.6
21.5
−1.6
5.6

Hey, quick one: what's Inh. (%) (Inhibition) for each of these?
1. N#CCCN(CCC#N)c1ccc(/C=C2/N=C(c3cc([N+](=O)[O-])ccc3Cl)OC2=O)cc1 [Compound 637916]
2. COc1cc(/C=C(\OC(C)=O)c2ccc3c(c2)OCO3)cc(OC)c1OC [Compound 647363]

Reply:
[1.1, "−17.1"]
